Hi there, I'd appreciate the recorded GI50 for every entry that follows.
System: OVCAR-4
procedure_summary: NCI tumour cell line growth inhibition, 48 h
Active and inactive are the calls of the source. No stated cut-off is given here; in the data, active = GI50 up to about 1.1 µM and inactive = higher.

Find the recorded GI50 belonging to CC(=O)N[C@@H](Cc1ccc(O)cn1)C(=O)NC1CCCCC1 and report it.
> 100 µM (inactive)

Find the recorded GI50 belonging to CC1C(=O)O[B-]2(c3ccccc3)Oc3ccccc3C=[N+]12 (stereo unspecified) and report it.
> 100 µM (inactive)

Find the recorded GI50 belonging to O=C(O)CC1(C(=O)O)CCCCC1 and report it.
> 100 µM (inactive)

Find the recorded GI50 belonging to CC1=CC(=O)/C(=C/NC(=S)c2ccncc2)C(=O)O1 and report it.
> 100 µM (inactive)

Find the recorded GI50 belonging to CCOC(=O)c1c(N)n(-c2ccccc2)c(=S)n(-c2ccccc2)c1=O and report it.
> 100 µM (inactive)

Find the recorded GI50 belonging to CN(C)CC1CCCCCC(Br)C1=O (stereo unspecified) and report it.
15 µM (inactive)

----------
Tested on: SNB-75
procedure_summary: NCI tumour cell line growth inhibition, 48 h
Calls of active or inactive are those of the source. No stated cut-off is given here; in the data, active = GI50 up to about 1.1 µM and inactive = higher. Peptide text beside a SMILES is read from it. * marks the point of attachment. Trt = c1ccc(C(c2ccccc2)(c2ccccc2)*)cc1; Cbz = O=C(OCc1ccccc1)*
measured_attribute: GI50

Find the recorded GI50 belonging to CC(=O)OCC1OC(On2ccccc2=S)C(OC(C)=O)C(OC(C)=O)C1OC(C)=O (stereo not given) and report it.
> 100 µM (inactive)

Find the recorded GI50 belonging to NC(CNc1ccc(O)cc1)C(=O)O (stereo not given) and report it.
> 100 µM (inactive)

Find the recorded GI50 belonging to COC(=O)C(CO)NC(=O)C(CSC(c1ccccc1)(c1ccccc1)c1ccccc1)NC(=O)OCc1ccccc1 (stereo not given) (Cbz-Cys(Trt)-Ser-OMe; configuration not given here) and report it.
17.6 µM (inactive)

Find the recorded GI50 belonging to CC1=CC(=O)/C(=C/NC(=S)c2ccncc2)C(=O)O1 and report it.
61.9 µM (inactive)

Find the recorded GI50 belonging to CCn1cc(C(=O)O)c(=O)c2cc(F)c(N3CCN(CN4C(=O)/C(=N\NC(=O)c5ccncc5)c5cc(Cl)ccc54)CC3)cc21 and report it.
25.5 µM (inactive)

----------
Hi there, I'd appreciate the recorded GI50 for every entry that follows.
System: SK-OV-3
procedure_summary: NCI tumour cell line growth inhibition, 48 h
Calls of active or inactive are those of the source. Cut-off read from the data, not from the text of the source: active = GI50 up to about 1.1 µM and inactive = higher.

Find the recorded GI50 belonging to COc1c(O)cc2c(c1O)C(=O)/C(=C/c1ccc(O)cc1)CO2 and report it.
24.7 µM (inactive)

Find the recorded GI50 belonging to CCNC(C)Cc1ccccc1 (configuration not stated) and report it.
> 100 µM (inactive)

Find the recorded GI50 belonging to CCCCCCCCCCCC[C@@H](O)[C@H]1CC[C@H]([C@H](O)CCCC[C@H](O)CCCCC[C@@H](O)CC2=C[C@H](C)OC2=O)O1 and report it.
4.03 µM (inactive)

Find the recorded GI50 belonging to O=C1CCCc2cc3c(cc21)CC1(Cc2ccccc2C1)C3 and report it.
5.11 µM (inactive)

Find the recorded GI50 belonging to OC(CCN1CCN(CCOC(c2ccccc2)c2ccccc2)CC1)c1ccccc1 (configuration not stated) and report it.
35.8 µM (inactive)

Find the recorded GI50 belonging to CS(=O)(=O)N1CC(CCl)c2ccc(NCCN)cc21 (configuration not stated) and report it.
22.1 µM (inactive)

Find the recorded GI50 belonging to CCCCN1C(=O)CS/C1=N/Nc1nc2c([nH]1)c(=O)n(C)c(=O)n2C and report it.
6.47 µM (inactive)

Find the recorded GI50 belonging to CCC1(C(=O)OC(C)(C)C)OC12C(C)CCCC2C (configuration not stated) and report it.
73.6 µM (inactive)

Find the recorded GI50 belonging to COC(=O)c1nc(N)nc(C(=O)OC)c1C(=O)c1ccccc1 and report it.
> 100 µM (inactive)

Find the recorded GI50 belonging to CN(C)/C=C/c1nnc([N+](=O)[O-])s1 and report it.
20.7 µM (inactive)

Find the recorded GI50 belonging to N=C(N)SCc1ccc(Cl)cc1Cl.O=[N+]([O-])c1c(O)c(Cl)cc(Cl)c1Cl and report it.
17.3 µM (inactive)

Find the recorded GI50 belonging to N#Cc1c(O)c(/C=N/c2ccc(Cl)cc2)c(=O)n2c1[nH]c1ccccc12 and report it.
> 100 µM (inactive)

Find the recorded GI50 belonging to O=C(CSc1nc2ccc(I)cc2c(=O)n1Cc1ccccc1)NNC(=S)Nc1ccccc1 and report it.
> 100 µM (inactive)

Find the recorded GI50 belonging to CN(C)c1nc(N(C)C)nc(N(C)CN(C)c2ccc(Cl)cc2)n1 and report it.
> 100 µM (inactive)

Find the recorded GI50 belonging to CC(=O)OCC1OC(n2c(=O)n(-c3ccccc3)c(=O)c3cc(Br)cc(Br)c32)C(OC(C)=O)C(OC(C)=O)C1OC(C)=O (configuration not stated) and report it.
> 100 µM (inactive)

Find the recorded GI50 belonging to Cc1ccc(S(=O)(=O)C2=Cc3ccccc3C2(O)c2ccccc2)cc1 (configuration not stated) and report it.
29.3 µM (inactive)

Find the recorded GI50 belonging to C[C@H]1CC[P+](C)(c2ccccc2)C1 (some centres not stated) and report it.
> 100 µM (inactive)

Find the recorded GI50 belonging to CCOC(=O)C1=CC(C)(C(=O)OCC)Nc2c(nc(OC)[nH]c2=O)N1 (configuration not stated) and report it.
> 10 µM (inactive)

Find the recorded GI50 belonging to O=c1/c(=C/c2ccccc2[N+](=O)[O-])sc2nc3ccccc3n12 and report it.
> 31.6 µM (inactive)

Find the recorded GI50 belonging to CN/N=C(/Cc1occc(=O)c1O)C(=O)Nc1ccc(C)c(C)c1 and report it.
> 100 µM (inactive)

Find the recorded GI50 belonging to CC(C)Oc1c(O)c2c3c(oc(=O)n3C=CC2c2ccccc2)c1OC(C)C (configuration not stated) and report it.
> 100 µM (inactive)

Find the recorded GI50 belonging to COC(=O)C1C(=O)N(C)C(=O)N2CCCC12 (configuration not stated) and report it.
> 100 µM (inactive)

----------
System: SNB-19
procedure_summary: NCI tumour cell line growth inhibition, 48 h
The source made the active and inactive calls. No stated cut-off is given here; in the data, active = GI50 up to about 1.1 µM and inactive = higher.
measured_attribute: GI50

Field: GI50 (SNB-19). Entry: C/C(=C\COc1ccc2ccc(=O)oc2c1)CCC(=O)C(C)(C)O
32.7 µM (inactive)

Field: GI50 (SNB-19). Entry: CC1=NOC(=O)C1/N=N/c1ccc(Br)c(C)c1 (configuration not stated)
31.2 µM (inactive)

Field: GI50 (SNB-19). Entry: CN(/N=C/c1cccc2cccnc12)c1ccccc1
59.8 µM (inactive)

Field: GI50 (SNB-19). Entry: COc1cc(C[C@@H](C)N)cc(OC)c1
> 100 µM (inactive)

Field: GI50 (SNB-19). Entry: CC(=O)c1c(-c2cccc3ccccc23)c(C#N)c(=S)n(C2OC(CO)C(O)C(O)C2O)c1C (configuration not stated)
59.7 µM (inactive)

Field: GI50 (SNB-19). Entry: CCOC(=O)C1=CC(C)(C(=O)OCC)Nc2c(nc(OC)[nH]c2=O)N1 (configuration not stated)
> 10 µM (inactive)

Field: GI50 (SNB-19). Entry: N#Cc1nc(C2=C(Cl)c3ccccc3OC2)[nH]c1C#N
29.8 µM (inactive)

Field: GI50 (SNB-19). Entry: CC1=C[C@@H]2Cc3nc4cc(Cl)ccc4c(N)c3[C@H](C1)C2
11.8 µM (inactive)

Field: GI50 (SNB-19). Entry: N#C/C(N)=C(\C#N)NC(=O)C(=O)N/C(C#N)=C(\N)C#N
> 100 µM (inactive)

Field: GI50 (SNB-19). Entry: Cc1c([C@H](C)[C@@H]2NC[C@@H](C)C[C@H]2O)ccc2c1C[C@H]1[C@H]2CC=C2C[C@@H](O)CC[C@@]21C [VERATRAMINE]
27.8 µM (inactive)

Field: GI50 (SNB-19). Entry: CCOC(=O)Cc1csc2[n+]1C(=O)/C(=C/c1cccc(OC)c1O)S2
50.9 µM (inactive)

Field: GI50 (SNB-19). Entry: Clc1cc(Cl)c2c(Cl)cc(Cl)c3c2c1N=S=N3
> 100 µM (inactive)

Field: GI50 (SNB-19). Entry: Cc1nc(=O)c2cc(CN(C)c3ccc(C(=O)N[C@@H](CCC(=O)O)C(=O)O)s3)ccc2[nH]1 [RALTITREXED]
> 100 µM (inactive)

Field: GI50 (SNB-19). Entry: COc1ccc(OC(C(=O)O)C(C)C)c2c1CCCC2=O (configuration not stated)
> 100 µM (inactive)

Field: GI50 (SNB-19). Entry: O=C(Nc1ccc(Cl)cc1)c1cc(S(=O)(=O)Nc2nc3cccnc3[nH]2)c(SSc2cc(Cl)c(C(=O)Nc3ccc(Cl)cc3)cc2S(=O)(=O)Nc2nc3cccnc3[nH]2)cc1Cl
> 100 µM (inactive)

Field: GI50 (SNB-19). Entry: CN(C)CCNC(=O)c1cccc2c(NCC(=O)O)c3ccccc3nc12
6.49 µM (inactive)

Field: GI50 (SNB-19). Entry: COC(=O)CC1CN(C(=O)OCc2ccccc2)C(C)(C)O1 (configuration not stated)
7.08 µM (inactive)

Field: GI50 (SNB-19). Entry: COc1ccc(CC2COc3cc(OC)cc(OC)c3C2=O)cc1 (configuration not stated)
25.2 µM (inactive)

Field: GI50 (SNB-19). Entry: O=S1OC(c2ccccc2)(c2ccccc2)C(c2ccccc2)(c2ccccc2)O1
> 100 µM (inactive)

Field: GI50 (SNB-19). Entry: CCc1cc2c(c3c1CCCC3)CC1(Cc3ccc(C(=O)OC)cc3C1)C2 (configuration not stated)
> 100 µM (inactive)

Field: GI50 (SNB-19). Entry: N#Cc1c(O)c(/C=N/c2ccc(Cl)cc2)c(=O)n2c1[nH]c1ccccc12
> 100 µM (inactive)

Field: GI50 (SNB-19). Entry: COC(=O)Cc1nc2ccccc2o1
> 100 µM (inactive)

Field: GI50 (SNB-19). Entry: Cc1ccc(NC=O)c(-c2c(N)[nH]c(=S)[nH]c2=O)c1
> 100 µM (inactive)

Field: GI50 (SNB-19). Entry: N=C(N)SCc1ccc(Cl)cc1Cl.O=[N+]([O-])c1c(O)c(Cl)cc(Cl)c1Cl
19.4 µM (inactive)

Field: GI50 (SNB-19). Entry: COC1(OC)CC(CO)(CNc2cc(Cl)nc(N)n2)C1
> 100 µM (inactive)

Field: GI50 (SNB-19). Entry: CNC(=O)OC(COC)CN1CCN(c2ccccc2C)CC1 (configuration not stated)
> 10 µM (inactive)

Field: GI50 (SNB-19). Entry: CC(=O)/C=C1/C(=O)C(CC(C)C)=C1CC(C)C
> 100 µM (inactive)

Field: GI50 (SNB-19). Entry: C(#CP(c1ccccc1)c1ccccc1)P(C#CP(c1ccccc1)c1ccccc1)c1ccccc1
> 100 µM (inactive)

Field: GI50 (SNB-19). Entry: CN(C)CCCn1cnc2ncccc2c1=O
> 100 µM (inactive)

Field: GI50 (SNB-19). Entry: CC1(C)CCC2(C(=O)OC3OC(CO)C(O)C(O)C3O)CCC3(CO)C(=CCC4C5(C)CC(O)C(O)C(C)(C(=O)OC6OC(CO)C(O)C(O)C6O)C5CCC43C)C2C1 (configuration not stated)
> 100 µM (inactive)

Field: GI50 (SNB-19). Entry: COC(=O)/C(=N\NC(N)=O)C(C#N)c1ccccc1 (configuration not stated)
> 100 µM (inactive)

Field: GI50 (SNB-19). Entry: COc1ccc(N(C)S(=O)(=O)c2ccccc2)cc1
> 100 µM (inactive)

Field: GI50 (SNB-19). Entry: CC1=C(C(=O)Nc2cc(F)c(F)cc2F)C(c2ccc([N+](=O)[O-])cc2)C(C(=O)Nc2cc(F)c(F)cc2F)=C(C)N1
48.6 µM (inactive)

Field: GI50 (SNB-19). Entry: COc1cc2oc(=O)cc(C)c2c(OC)c1OC
> 100 µM (inactive)

Field: GI50 (SNB-19). Entry: C=C1c2nc3ccccc3n2C=C(c2ccc(Cl)cc2)N1c1ccc(OCCN2CCCCC2)cc1
> 45 µM (inactive)

Field: GI50 (SNB-19). Entry: CCc1nc2c([nH]1)C(=O)c1ccccc1C2=O
46.2 µM (inactive)

Field: GI50 (SNB-19). Entry: NC(=O)N/N=C1/CCC(O)CC1CC(=O)O (configuration not stated)
> 100 µM (inactive)

Field: GI50 (SNB-19). Entry: CC(=O)N/C=C/c1cc(O)ccc1O
> 52.7 µM (inactive)

Field: GI50 (SNB-19). Entry: O=C(CCC(=O)C1CCC/C1=N/O)Nc1ccc(Cl)cc1 (configuration not stated)
> 100 µM (inactive)

Field: GI50 (SNB-19). Entry: COc1cccc(-c2nc(-c3cnccn3)n(COCCO)n2)c1
> 100 µM (inactive)

Field: GI50 (SNB-19). Entry: COc1ncnc2c(NC3OC(CO)C(O)C3O)ncnc12 (configuration not stated)
1.16 µM (inactive)

Field: GI50 (SNB-19). Entry: COc1ccc(/N=N\c2c(N)nn3c(SC)c(C#N)c(N)nc23)cc1
16.9 µM (inactive)
